# SYSTEM_NAME: T1, Aurora-A^M7KD (Aurora-A 122–403 D274N C290A C393A N332A Q335A T347A D350A) (human, UniProt O14965 122-403, D274N | C290A | C393A | N332A | Q335A | T347A | D350A)
# T1 construct: Aurora-A kinase domain, human, residues 122-403, with crystal-contact mutations in the C-lobe; also called Aurora-A^M7KD-D; Aurora^M7KD; source: E. coli, purified; not shown: His6, N-terminal, cleaved
# T1 sequence (looked up): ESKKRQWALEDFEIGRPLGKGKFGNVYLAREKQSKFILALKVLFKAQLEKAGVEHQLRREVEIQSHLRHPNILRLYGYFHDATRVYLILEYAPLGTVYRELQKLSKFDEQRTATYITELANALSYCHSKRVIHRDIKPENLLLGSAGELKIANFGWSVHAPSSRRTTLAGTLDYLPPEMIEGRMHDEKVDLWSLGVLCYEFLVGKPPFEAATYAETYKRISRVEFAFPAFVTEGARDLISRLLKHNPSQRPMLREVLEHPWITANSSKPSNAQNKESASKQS
# PROCEDURE_TEXT: fluorescence polarisation; direct fluorescence anisotropy: Aurora-A diluted across the plate, 50 nM tracer FAM-CEP192 501–533; 25 mM HEPES pH 7.5, 150 mM NaCl, 2 mM DTT, 5 mM MgCl2, 0.01% Tween 20; 1 h at room temperature
# EXPERIMENTAL_CONDITIONS: both partners purified
Where no end group is shown, it is not given here. FAM = 5(6)-carboxyfluorescein
REPORTED_METRIC: pKd
Here pKd is given on a logarithmic scale as minus log10 of the concentration in mol/L.

I have this binder here, {FAM}-SDEMNEDFRSGSEAFDLIAQDEEEFNKEHQFIQ (peptide, UniProt Q8TEP8 501-533, looked up, Made on Rink amide resin and labelled on resin after synthesis, so N-terminal label and C-terminal amide are likely; MS data of the peptides are in the source data; source: synthetic peptide) [FAM-CEP192 501–533] , and I need its recorded pKd.
5.90
